This collection of values is drawn from ChEMBL document CHEMBL1145288.

Property: Ki; scope: individual compounds
target_or_test_system: Cytochrome P450 2A6 (Homo sapiens, UniProt P11509)
Sequence (P11509 whole entry): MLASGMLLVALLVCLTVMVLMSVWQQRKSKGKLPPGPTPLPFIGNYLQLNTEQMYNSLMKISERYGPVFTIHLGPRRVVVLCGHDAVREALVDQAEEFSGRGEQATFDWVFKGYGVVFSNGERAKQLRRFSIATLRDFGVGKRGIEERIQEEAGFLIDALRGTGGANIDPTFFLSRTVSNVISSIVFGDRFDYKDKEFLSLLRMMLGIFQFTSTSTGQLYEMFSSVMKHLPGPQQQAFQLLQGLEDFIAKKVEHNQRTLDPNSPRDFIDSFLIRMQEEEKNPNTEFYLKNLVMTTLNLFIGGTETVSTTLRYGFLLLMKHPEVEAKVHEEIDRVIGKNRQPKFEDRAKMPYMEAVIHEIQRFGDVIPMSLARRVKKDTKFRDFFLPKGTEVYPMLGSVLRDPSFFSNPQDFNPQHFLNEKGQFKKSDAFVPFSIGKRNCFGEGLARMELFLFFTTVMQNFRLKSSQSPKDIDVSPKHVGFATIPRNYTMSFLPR

- compound: "CCn1cnc(-c2cccnc2)c1"
  target_or_test_system: "Cytochrome P450 2A6 (Homo sapiens, UniProt P11509)"
  value_units: "nM"
  Ki: 520
- compound: "NCc1ccc(-c2cccnc2)cc1"
  target_or_test_system: "Cytochrome P450 2A6 (Homo sapiens, UniProt P11509)"
  value_units: "nM"
  Ki: 1400
- compound: "Cc1cncc(-c2cscc2C)c1"
  target_or_test_system: "Cytochrome P450 2A6 (Homo sapiens, UniProt P11509)"
  value_units: "nM"
  Ki: 170
- compound: "Brc1cncc(-c2ccsc2)c1"
  target_or_test_system: "Cytochrome P450 2A6 (Homo sapiens, UniProt P11509)"
  value_units: "nM"
  Ki: 4500
- compound: "CN1CCC[C@H]1c1cccnc1"
  target_or_test_system: "Cytochrome P450 2A6 (Homo sapiens, UniProt P11509)"
  value_units: "nM"
  Ki: 4400
- compound: "Cc1cccnc1-c1cccnc1"
  target_or_test_system: "Cytochrome P450 2A6 (Homo sapiens, UniProt P11509)"
  value_units: "nM"
  Ki: 43700
- compound: "c1ccc(-c2cccnc2)nc1 [[2,3'']Bipyridinyl]"
  target_or_test_system: "Cytochrome P450 2A6 (Homo sapiens, UniProt P11509)"
  value_units: "nM"
  Ki: 7700
- compound: "c1cncc(-c2ccsc2)c1"
  target_or_test_system: "Cytochrome P450 2A6 (Homo sapiens, UniProt P11509)"
  value_units: "nM"
  Ki: 220
